biological target: USP1 (construct USP1 (I-785, GG670, 671AA)/UAF1 (I-677)-Flag) (Homo sapiens (Human), UniProt O94782, G670A/G671A); experiment: Ubiquitin-Rhodamine 110 assay for USP1 activity; details: USP1/UAF1 25 pM, Ub-Rh110 25 nM, 30 min preincubation
Sequence (O94782 whole entry G670A/G671A): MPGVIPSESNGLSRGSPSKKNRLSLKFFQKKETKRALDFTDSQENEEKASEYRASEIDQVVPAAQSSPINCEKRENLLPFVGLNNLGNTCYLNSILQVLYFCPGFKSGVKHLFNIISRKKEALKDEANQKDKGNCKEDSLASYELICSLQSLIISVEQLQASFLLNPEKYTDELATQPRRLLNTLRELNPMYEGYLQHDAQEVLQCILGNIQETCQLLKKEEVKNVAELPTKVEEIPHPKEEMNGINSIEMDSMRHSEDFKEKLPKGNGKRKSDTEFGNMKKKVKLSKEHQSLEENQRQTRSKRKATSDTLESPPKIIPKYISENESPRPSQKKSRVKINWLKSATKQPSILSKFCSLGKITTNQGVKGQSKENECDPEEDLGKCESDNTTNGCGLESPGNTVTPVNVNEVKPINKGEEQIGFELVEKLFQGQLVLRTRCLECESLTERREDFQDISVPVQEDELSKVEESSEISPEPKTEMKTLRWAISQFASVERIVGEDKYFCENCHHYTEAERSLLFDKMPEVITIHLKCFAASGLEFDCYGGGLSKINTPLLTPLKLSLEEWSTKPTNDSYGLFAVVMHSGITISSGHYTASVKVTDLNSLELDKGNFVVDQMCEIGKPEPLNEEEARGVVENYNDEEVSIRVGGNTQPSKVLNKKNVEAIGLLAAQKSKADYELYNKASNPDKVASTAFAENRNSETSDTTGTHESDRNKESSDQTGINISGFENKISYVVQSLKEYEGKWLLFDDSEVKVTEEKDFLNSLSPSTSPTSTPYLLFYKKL
Sequence (Q8TAF3 whole entry partner): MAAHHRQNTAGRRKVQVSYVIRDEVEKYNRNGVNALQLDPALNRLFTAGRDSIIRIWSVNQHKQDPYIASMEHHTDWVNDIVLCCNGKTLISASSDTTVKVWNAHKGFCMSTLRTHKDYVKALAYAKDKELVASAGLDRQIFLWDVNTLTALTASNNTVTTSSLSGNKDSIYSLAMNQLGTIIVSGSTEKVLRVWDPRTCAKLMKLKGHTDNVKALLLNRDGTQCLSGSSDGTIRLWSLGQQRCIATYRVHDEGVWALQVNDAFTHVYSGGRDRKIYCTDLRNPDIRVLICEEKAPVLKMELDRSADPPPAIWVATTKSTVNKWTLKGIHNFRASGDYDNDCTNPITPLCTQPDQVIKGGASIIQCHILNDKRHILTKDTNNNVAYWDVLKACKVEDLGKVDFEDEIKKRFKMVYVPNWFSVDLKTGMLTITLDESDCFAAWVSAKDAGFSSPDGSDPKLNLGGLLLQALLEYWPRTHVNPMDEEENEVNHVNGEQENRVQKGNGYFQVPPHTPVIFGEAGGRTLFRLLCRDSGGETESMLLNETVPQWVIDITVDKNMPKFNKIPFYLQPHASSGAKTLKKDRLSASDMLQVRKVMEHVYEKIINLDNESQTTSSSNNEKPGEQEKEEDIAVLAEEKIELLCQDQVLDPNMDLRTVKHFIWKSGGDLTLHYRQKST
pIC50: −log10 of the molar value.
parameter: pIC50

Ask: Field request: pIC50 | item: CC(C)c1ccccc1-c1ncc2[nH]c(=O)n(Cc3ccc(-n4ccc(C5CCN(C)CC5)n4)cc3)c2n1
Result: 6.70 to 7.30

Ask: Data request, read-out pIC50, for COCCO[C@H]1CCN(C(=O)c2ccc(Cn3c(=O)[nH]c4cnc(-c5ccccc5C(C)C)nc43)cc2)C1
Result: 5.70 to 6.70

Ask: Would you kindly share the measured pIC50 for Cn1cc(C(F)(F)F)nc1-c1ccc(Cn2c(=O)[nH]c3cnc(-c4ccccc4C(C)(C)O)nc32)cc1 ?
Result: > 7.30

Ask: Reported pIC50, molecule Cc1cc(Cl)n(-c2ccc(Cn3c(=O)[nH]c4cnc(-c5cccnc5C(C)C)nc43)cc2)n1 : ____
Result: > 7.30

----------
molecular target: USP1 (construct USP1 (I-785, GG670, 671AA)/UAF1 (I-677)-Flag) (Homo sapiens (Human), UniProt O94782, G670A/G671A); assay: Ubiquitin-Rhodamine 110 assay for USP1 activity; settings: USP1/UAF1 25 pM, Ub-Rh110 25 nM, 30 min preincubation
parameter: IC50

Ask: Please give the measured IC50 for this molecule: CC(C)c1ccccc1-c1ncc2c(n1)n(CC1CCN(c3nncs3)CC1)c(=O)n2C
Result: > 2 µM

Ask: Could you tell me which IC50 is on file for CC(C)c1ccccc1-c1ncc2[nH]c(=O)n(Cc3ccc(C(=O)Nc4nccn4C)cc3)c2n1 ?
Result: 0.05 to 0.2 µM

Ask: Could you tell me which IC50 is on file for Cc1nc(-c2ccc(Cn3c(=O)[nH]c4cnc(-c5cccc(F)c5C(C)C)nc43)cc2)no1 ?
Result: < 0.05 µM

Ask: Which measured IC50 value corresponds to CC(C)c1ccccc1-c1ncc2c(n1)n(CC1CCN(S(=O)(=O)c3cccnc3)CC1)c(=O)n2C ?
Result: > 2 µM

Ask: Query (molecule): Cc1cccc(-c2ncc3[nH]c(=O)n(Cc4ccc(-n5cccn5)cc4)c3n2)c1C(C)C ; field requested: IC50
Result: < 0.05 µM

Ask: Return reported IC50; argument: CC(C)c1ccccc1-c1ncc2[nH]c(=O)n([C@H](CO)c3ccc(F)cc3)c2n1
Result: 0.05 to 0.2 µM

Ask: Sample CC(C)c1ccccc1-c1ncc2[nH]c(=O)n(CCC3CCN(c4cccnc4)CC3)c2n1 — what was its IC50?
Result: 0.2 to 2 µM

----------
biological target: USP1 (construct USP1 (I-785, GG670, 671AA)/UAF1 (I-677)-Flag) (Homo sapiens (Human), UniProt O94782, G670A/G671A); assay: Ubiquitin-Rhodamine 110 assay for USP1 activity; conditions: USP1/UAF1 25 pM, Ub-Rh110 25 nM, 30 min preincubation
For each record, write down the corresponding IC50.

Ask: Param item = Cc1cn(-c2ccc(Cn3c(=O)[nH]c4cnc(-c5ccccc5C(C)C)nc43)cc2)nn1 ; retrieve measured IC50.
Result: < 50 nM

Ask: GET /values?readout=IC50&item= CN1CCN(c2ncccc2-c2ncc3[nH]c(=O)n(Cc4ccc(-c5nc(C(F)(F)F)cn5C)cc4)c3n2)CC1
Result: 200 to 2000 nM

Ask: Given the entry CC(C)c1ccccc1-c1ncc2c(n1)n(Cc1cccc(OCCCN(C)C)c1)c(=O)n2C , report its measured IC50.
Result: > 2000 nM

Ask: Quick one: IC50 for Cc1cc(C#N)n(-c2ccc(Cn3c(=O)[nH]c4cnc(-c5ccccc5C(C)C)nc43)cc2)n1 ?
Result: < 50 nM

Ask: Report IC50 for CNc1nc(-c2ccccc2C(C)C)nc2c1[nH]c(=O)n2Cc1ccc(-c2nc(C(F)(F)F)cn2C)cc1 please.
Result: < 50 nM

Ask: What IC50 value was documented for this compound, Cc1ccnn1-c1ccc(Cn2c(=O)[nH]c3cnc(-c4ccccc4C(C)C)nc32)cc1 ?
Result: < 50 nM

Ask: Which IC50 reading was recorded for the compound CC(C)c1ccccc1-c1ncc2[nH]c(=O)n(Cc3ccc(-n4ccc(C5CCNCC5)n4)cc3)c2n1 ?
Result: 50 to 200 nM

----------
Would you kindly list IC50 for each of these compounds?
molecular target: USP1 (construct USP1 (I-785, GG670, 671AA)/UAF1 (I-677)-Flag) (Homo sapiens (Human), UniProt O94782, G670A/G671A); assay: Ubiquitin-Rhodamine 110 assay for USP1 activity; type: biochemical; details: USP1/UAF1 25 pM, Ub-Rh110 25 nM, 30 min preincubation

Ask: Please report the recorded IC50 for Cn1cc(C(F)(F)F)nc1-c1ccc(Cn2c(=O)[nH]c3cnc(-c4cccnc4OC4CC4)nc32)cc1 .
Result: < 50 nM

Ask: Sample Cc1cc(C)n([C@H]2CC[C@H](Cn3c(=O)n(C)c4cnc(-c5ccccc5C(C)C)nc43)CC2)n1 — what was its IC50?
Result: > 2000 nM

Ask: Given the entry CCOCCOc1ncccc1-c1ncc2[nH]c(=O)n(Cc3ccc(-c4nc(C(F)(F)F)cn4C)cc3)c2n1 , report its measured IC50.
Result: < 50 nM

Ask: Fill in: IC50 of CC(C)c1ccccc1-c1ncc2[nH]c(=O)n(Cc3ccc(-n4ncc5c4CNC5)cc3)c2n1 is ___
Result: 200 to 2000 nM

Ask: Please report the recorded IC50 for Cc1cc(C)n(-c2ccc([C@H](C)n3c(=O)[nH]c4cnc(-c5ccccc5C(C)C)nc43)cc2)n1 .
Result: < 50 nM

Ask: Give its IC50 value. Item: CC(C)c1ncccc1-c1ncc2[nH]c(=O)n([C@@H](C)c3ccc(-n4cccn4)cc3)c2n1
Result: 200 to 2000 nM

Ask: Consider the compound shown here: CC(C)c1ccccc1-c1ncc2[nH]c(=O)n(Cc3ccc(C(=O)N(C)C4CC4)cc3)c2n1 What is its recorded IC50?
Result: < 50 nM

Ask: Dear colleague, I am looking for the recorded IC50 of the following compound: CN(C)c1ccccc1-c1ncc2[nH]c(=O)n(Cc3ccc(-c4nc(C(F)(F)F)cn4C)cc3)c2n1
Result: < 50 nM

Ask: # lookup: IC50 of COC[C@@H]1CCCN1C(=O)c1ccc(Cn2c(=O)[nH]c3cnc(-c4ccccc4C(C)C)nc32)cc1
Result: 200 to 2000 nM

Ask: Quick one: IC50 of Cn1cc(C(F)(F)F)nc1-c1ccc(Cn2c(=O)[nH]c3cnc(-c4ccccc4C(F)F)nc32)cc1 ?
Result: < 50 nM

Ask: Item Cc1cn(C)c(-c2ccc(Cn3c(=O)[nH]c4cnc(-c5cccc(F)c5C(C)C)nc43)cc2)n1 has what recorded IC50?
Result: < 50 nM

Ask: Can you share its IC50? I mean this compound: CC(C)c1ccccc1-c1ncc2c(n1)n(Cc1ccc(-c3nccn3C3CCNCC3)cc1)c(=O)n2C
Result: < 50 nM

Ask: Item under review: CC(C)c1ccccc1-c1ncc2[nH]c(=O)n(Cc3ccc(C(=O)N4CCOCC4)cc3)c2n1 . Reported IC50?
Result: 50 to 200 nM

Ask: // lookup IC50 for COc1cc(C)n(-c2ccc(Cn3c(=O)[nH]c4cnc(-c5cccnc5C(C)C)nc43)cc2)n1
Result: < 50 nM

Ask: Query (compound): CCCOc1ncccc1-c1ncc2[nH]c(=O)n(Cc3ccc(-c4nc(C(F)(F)F)cn4C)cc3)c2n1 ; field requested: IC50
Result: < 50 nM

Ask: Quick one: IC50 for CC(C)c1ccccc1-c1ncc2[nH]c(=O)n(Cc3ccc(-n4cc(C(C)(C)O)nn4)cc3)c2n1 ?
Result: 200 to 2000 nM

Ask: What value of IC50 has been recorded for this entry: Cn1cc(C(F)(F)F)nc1-c1ccc(Cn2c(=O)[nH]c3cnc(-c4cccnc4OC(F)F)nc32)cc1
Result: < 50 nM

Ask: Look at this compound and give its reported IC50. CC(C)c1ccccc1-c1ncc2c(n1)n(Cc1ccc(OCC3CCOC3)cc1)c(=O)n2C (centres unmarked)
Result: 50 to 200 nM

Ask: Would you kindly share the measured IC50 for CC(C)c1ccccc1-c1ncc2[nH]c(=O)n(Cc3ccc(C(=O)N4CCCC4)cc3)c2n1 ?
Result: < 50 nM

Ask: State the recorded IC50 for this entry: CC(C)c1ccccc1-c1ncc2c(n1)n(Cc1ccc(-n3cccn3)cc1)c(=O)n2C
Result: 50 to 200 nM

Ask: # input compound: Cn1cc(C(F)(F)F)nc1-c1ccc(Cn2c(=O)[nH]c3cnc(-c4ccccc4[S+](C)[O-])nc32)cc1 (centres unmarked) ; wanted: its IC50
Result: 200 to 2000 nM

Ask: Look up IC50: CC(C)c1ncccc1-c1ncc2[nH]c(=O)n(Cc3ccc(-c4nc(C(F)(F)F)cn4C)cc3F)c2n1
Result: < 50 nM

Ask: Recorded IC50 of Cn1cc(C(F)(F)F)nc1-c1ccc(Cn2c(=O)[nH]c3cnc(-c4cccnc4N4CC(F)C4)nc32)cc1 , please.
Result: < 50 nM

Ask: Need IC50 of Cc1nc(-c2ccc(Cn3c(=O)[nH]c4cnc(-c5ccccc5C(C)C)nc43)cc2)c(C)s1 , thanks.
Result: < 50 nM

Ask: Query: IC50; subject: Cc1cn(C(C)C)c(-c2ccc(Cn3c(=O)[nH]c4cnc(-c5ccccc5C(C)C)nc43)cc2)n1
Result: < 50 nM

Ask: If you can, please state the reported IC50 value of CC(C)c1ccccc1-c1ncc2c(n1)n(Cc1ccc(-c3nc(C(F)(F)F)cn3C3CNC3)cc1)c(=O)n2C .
Result: < 50 nM

Ask: If you can, please state the reported IC50 value of [2H]C([2H])([2H])n1cc(C(F)(F)F)nc1-c1ccc(Cn2c(=O)n(C)c3cnc(-c4cccnc4C(C)C)nc32)cc1 .
Result: < 50 nM

Ask: # input compound: CC(C)c1c(Cl)cccc1-c1ncc2[nH]c(=O)n(Cc3ccc(-n4cccn4)cc3)c2n1 ; wanted: its IC50
Result: 50 to 200 nM

Ask: For the compound shown here, CC(C)c1ccccc1-c1ncc2[nH]c(=O)n([C@H](C)c3ccc(-c4nccn4C)cc3)c2n1 , give the reported IC50.
Result: < 50 nM

Sourced from patent US10189841B2
